- method_description: Study CL-003 in subjects with tinea pedis, plasma PK
- Type: in vivo, human
- measurement_setup: human, plasma, High Dose 1200 mg/300 mg, Day 14; read-out: AUC0−8
assay_readout: AUC(0-t) (µg·h/mL)
Give just the numeric value; µg·h/mL need not be written.

Task item: Determine its reported AUC(0-t): O[C@@](Cn1cnnn1)(c1ccc(F)cc1F)C(F)(F)c1ccc(-c2ccc(OCC(F)(F)F)cc2)cn1 [Oteseconazole, oteseconazole]
Reply: 17.6

* * *

- method_description: Study CL-004 plasma PK
- Format: in vivo, human
- measurement_setup: human, plasma; Day 1, 300 mg dose; read-out: AUC0-8
assay_readout: AUC(0-t)

Task item: Name the recorded AUC(0-t) of the item `O[C@@](Cn1cnnn1)(c1ccc(F)cc1F)C(F)(F)c1ccc(-c2ccc(OCC(F)(F)F)cc2)cn1` in your answer.
Reply: 1870 ng·h/mL
